Answer each item with its documented abundance fitness.
B1: CD2-associated protein, residues 271 to 331; numbered along this chain, Q9Y5K6 (parent)
chain: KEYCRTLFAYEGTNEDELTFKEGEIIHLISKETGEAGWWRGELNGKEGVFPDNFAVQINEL

Variants of: B1
assay-details: abundance fitness (aPCA) (normalised: wild type 0, dead -1); higher = more abundant; growth selection in yeast, the domain comes from the species named
condition-details: Homo sapiens
Form rule: numeric answer, no unit written next to it.

Report abundance fitness for KEYCRTLFAYEGTNEDELTFKEGEIIHLISKETGEAGWWRGELNNKEGVFPDNFAVQINEL [G45N] please. -0.359

Report abundance fitness for KEYCRTLFAYEATNEDELTFKEGEIIHLISKETGEAGWWRGELNGKEGVFPDNFAVQINEL [G12A] please. 0.036

Report abundance fitness for KEYCRTLFAYEGTNEDELTFKEGEIIHLISKETGEAGWWRGELNGKLGVFPDNFAVQINEL [E47L] please. -0.241

Report abundance fitness for KEYCRTLFAYEGTNEDELTFKEGEIIHLISKETGIAGWWRGELNGKEGVFPDNFAVQINEL [E35I] please. 0.119

Report abundance fitness for KEYCRTLFAYEGTNFDELTFKEGEIIHLISKETGEAGWWRGELNGKEGVFPDNFAVQINEL [E15F] please. -0.43

Report abundance fitness for KEYGRTLFAYEGTNEDELTFKEGEIIHLISKETGEAGWWRGELNGKEGVFPDNFAVQINEL [C4G] please. -0.707

Report abundance fitness for KEYCRTLFAYEGTNEDELTFKEGEIIHLISKETGEAGWWRGELNGKEGVFPDNFAVQINWL [E60W] please. -0.258

Report abundance fitness for KEYCRTLFAYEGTNEDELTFKEGEIIHLISKETGEAGWWRGELNGKEGVFPDKFAVQINEL [N53K] please. 0.133

Report abundance fitness for KEYCETLFAYEGTNEDELTFKEGEIIHLISKETGEAGWWRGELNGKEGVFPDNFAVQINEL [R5E] please. -0.154

Report abundance fitness for KEYCRTLFAYEGTNEDELTFKEYEIIHLISKETGEAGWWRGELNGKEGVFPDNFAVQINEL [G23Y] please. -1.09

Report abundance fitness for KEYCRTLFAYEGENEDELTFKEGEIIHLISKETGEAGWWRGELNGKEGVFPDNFAVQINEL [T13E] please. -0.042

Report abundance fitness for KEYCRTLFAYEGTNEDELTFKEGEIIHLISYETGEAGWWRGELNGKEGVFPDNFAVQINEL [K31Y] please. -0.634

Report abundance fitness for KEYCRTLFAYEGTNEDELTFKEGEIIHLISKETGEAGWWRGELRGKEGVFPDNFAVQINEL [N44R] please. -0.073

Report abundance fitness for KEYCRTLFAYEGTNEDELTFKEGEIIHLISKETGEAGWWRGELNGIEGVFPDNFAVQINEL [K46I] please. -0.309

Report abundance fitness for KEYCRTLFAYEGTNEDELTFKEGEIIHLISKETGEAGWWRGELNGKEGVFPVNFAVQINEL [D52V] please. -0.16

Report abundance fitness for KEYCRTLFAYEGTNEDELTFKEGEIIHLISKEVGEAGWWRGELNGKEGVFPDNFAVQINEL [T33V] please. -0.129

Report abundance fitness for KEYCRTLFAYEGTNEDELTFKEGEIIHLISKETGEAGHWRGELNGKEGVFPDNFAVQINEL [W38H] please. -0.349

Report abundance fitness for KEYCRTLFAYEGTNEDELTFKEGEIIHLISKETGEAGWWRGELNGKEGVFPDNFAVQIYEL [N59Y] please. -0.332

Report abundance fitness for KEYCRTLFAYEGTNEDELTFKEGEIIHLISKETGEAGWNRGELNGKEGVFPDNFAVQINEL [W39N] please. -0.734

Report abundance fitness for KEYCRTLFAYEGTNEDELTFKEGEIIHLISKETGEAGWWRGELEGKEGVFPDNFAVQINEL [N44E] please. -0.043

Report abundance fitness for KEYCRTLFAYEGTNEDELTFKEGEIIHKISKETGEAGWWRGELNGKEGVFPDNFAVQINEL [L28K] please. -0.503

Report abundance fitness for KEYCRTLFAYEGTNEDELTFKEGEIIHLISKETGEAGWWRGELNGKEGVFPDNFWVQINEL [A55W] please. -0.623

Attribution: the Human Domainome abundance scans (Beltran et al. 2025)
